- SUBJECT OF TEST: human muscarinic M3 receptor (Homo sapiens, UniProt P20309)
- Sequence (P20309 whole entry): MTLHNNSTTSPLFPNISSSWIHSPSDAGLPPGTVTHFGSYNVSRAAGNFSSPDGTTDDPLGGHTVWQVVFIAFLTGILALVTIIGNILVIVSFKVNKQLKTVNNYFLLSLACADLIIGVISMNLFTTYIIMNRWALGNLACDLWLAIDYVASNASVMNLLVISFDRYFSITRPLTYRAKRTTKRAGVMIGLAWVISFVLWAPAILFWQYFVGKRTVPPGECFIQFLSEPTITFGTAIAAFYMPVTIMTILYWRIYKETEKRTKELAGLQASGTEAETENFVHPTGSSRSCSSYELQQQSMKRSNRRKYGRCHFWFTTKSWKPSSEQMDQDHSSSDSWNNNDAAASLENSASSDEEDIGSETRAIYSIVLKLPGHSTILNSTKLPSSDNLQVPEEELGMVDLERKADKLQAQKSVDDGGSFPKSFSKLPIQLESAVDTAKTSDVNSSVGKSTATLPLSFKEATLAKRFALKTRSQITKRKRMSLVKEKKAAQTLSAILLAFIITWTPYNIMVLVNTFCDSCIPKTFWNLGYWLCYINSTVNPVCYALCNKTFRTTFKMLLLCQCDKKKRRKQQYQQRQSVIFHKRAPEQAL
- MEASUREMENT NOTES: Alphascreen Surefire phospho-ERK1/2 functional assay, M3
- CONDITION PARAMETERS: CHO, read-out: % Emax cf. ACh, M3, CHO cells stably expressing human M3; relative to ACh
VALUE TYPE: Emax (%)

CCOC(=O)N1CCC2(CC(N3CCC(c4cnc(OC)cc4C)CC3)C2)C1 (single isomer, unassigned) [3-6 Isomer 2] : 4
CCOC(=O)N1CCC2(CC(N3CCC([C@@H]4CCCN4C(=S)NC)CC3)C2)C1 (single isomer, unassigned) [2-75 Isomer 2] : 4
CCOC(=O)N1CCC2(CC(N3CCC(c4nnc[nH]4)CC3)C2)C1 (single isomer, unassigned) [1-26 Isomer 2] : 53
CCOC(=O)N1CCC2(CC(N3CCC(N4CCNC4=O)CC3)C2)C1 (single isomer, unassigned) [2-124 Isomer 2] : 0

A: CCNC(=O)N1CCCC1C1CCN(C2CC3(CCN(C(=O)OCC)C3)C2)CC1 (single isomer, unassigned) [2-19 Isomer 2]
B: CCOC(=O)N1CCC2(CC(N3CCC(N4CC(F)(F)C[C@@H]4C(N)=O)CC3)C2)C1 (single isomer, unassigned) [2-90 Isomer 2]
Query block: Field: entry with larger Emax (options A / B ). Respond with the label that goes with your answer.
Result block: A

* * *

- SUBJECT OF TEST: human muscarinic M1 receptor (Homo sapiens, UniProt P11229)
- Sequence (P11229 whole entry): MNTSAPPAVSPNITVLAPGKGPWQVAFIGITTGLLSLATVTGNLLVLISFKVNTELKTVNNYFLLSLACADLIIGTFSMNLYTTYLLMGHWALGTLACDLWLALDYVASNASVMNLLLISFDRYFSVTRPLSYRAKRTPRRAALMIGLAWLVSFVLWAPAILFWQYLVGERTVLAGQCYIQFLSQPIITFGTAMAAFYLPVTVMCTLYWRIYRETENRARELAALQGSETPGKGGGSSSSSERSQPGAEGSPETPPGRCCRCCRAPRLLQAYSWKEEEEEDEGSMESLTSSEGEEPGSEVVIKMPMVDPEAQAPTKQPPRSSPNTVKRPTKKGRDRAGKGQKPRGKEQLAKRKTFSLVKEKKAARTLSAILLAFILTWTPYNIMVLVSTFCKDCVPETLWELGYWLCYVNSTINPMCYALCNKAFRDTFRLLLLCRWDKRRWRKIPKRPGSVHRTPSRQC
- MEASUREMENT NOTES: Alphascreen Surefire phospho-ERK1/2 functional assay, M1
- Type: cell-based
- CONDITION PARAMETERS: CHO cells stably expressing human M1; phospho-ERK1/2; * = variable results; read-out: pEC50 M1 (converted)
VALUE TYPE: EC50 (nM)

Use the examples below as a reference point.
CCOC(=O)N1CCC2(CC(N3CCC(c4nccn4CC(=O)O)CC3)C2)C1 (single isomer, unassigned) [1-53 Isomer 2] : 5010
COC(=O)N1CCC2(CC(N3CCC(c4nccs4)CC3)C2)C1 (single isomer, unassigned) [1-24 Isomer 2] : 251

P: CCOC(=O)N1CCC2(CC(N3CCC(c4nc(C(F)(F)F)c[nH]4)CC3)C2)C1 (single isomer, unassigned) [1-3 Isomer 2]
Q: CCOC(=O)N1CCC2(CC(N3CCC([C@@H]4C[C@H](F)CN4C(=O)CC)CC3)C2)C1 (single isomer, unassigned) [2-59 Isomer 2]
R: CCOC(=O)N1CCC2(CC(N3CCC(N4CCC(F)(F)CC4)CC3)C2)C1 (single isomer, unassigned) [4-14 Isomer 2]
S: CCOC(=O)N1CCC2(CC(N3CCC([C@@H]4CCCN4C(=O)NCc4ccccn4)CC3)C2)C1 (single isomer, unassigned) [2-54 Isomer 2]
Query block: Reorder the items by EC50, least to greatest. # list labels per requested ordering
Result block: S, R, P, Q

* * *

- SUBJECT OF TEST: human muscarinic M4 receptor (Homo sapiens)
- Construct: expressed in transfected cells
- Sequence (P08173 whole entry): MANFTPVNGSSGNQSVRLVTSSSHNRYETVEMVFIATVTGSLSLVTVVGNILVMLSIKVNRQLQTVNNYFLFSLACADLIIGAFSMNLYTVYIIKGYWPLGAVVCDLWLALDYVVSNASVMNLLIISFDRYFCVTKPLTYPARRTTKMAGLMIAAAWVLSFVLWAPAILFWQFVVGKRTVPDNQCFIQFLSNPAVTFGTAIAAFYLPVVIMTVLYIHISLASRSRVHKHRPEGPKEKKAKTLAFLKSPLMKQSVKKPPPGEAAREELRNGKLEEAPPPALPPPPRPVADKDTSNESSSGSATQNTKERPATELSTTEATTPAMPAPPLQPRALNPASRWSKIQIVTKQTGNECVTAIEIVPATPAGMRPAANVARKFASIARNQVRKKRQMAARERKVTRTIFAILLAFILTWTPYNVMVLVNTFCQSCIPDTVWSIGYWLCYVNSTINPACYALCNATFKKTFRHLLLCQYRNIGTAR
- MEASUREMENT NOTES: Alphascreen Surefire phospho-ERK1/2 functional assay, M4
- Assay type: cell-based
- CONDITION PARAMETERS: CHO cells stably expressing human M4; phospho-ERK1/2; * = variable results; read-out: pEC50 M4 (converted)
VALUE TYPE: EC50 (nM)

CCOC(=O)N1CCC2(CC(N3CCC([C@@H]4CCCN4C(=O)N(C)CC(F)(F)F)CC3)C2)C1 (single isomer, unassigned) [2-55 Isomer 1] : 158
CCOC(=O)N1CCC2(CC(N3CCC([C@H]4CCCN4C(=O)NC)CC3)C2)C1 (single isomer, unassigned) [2-18 Isomer 2] : 79.4
CCOC(=O)N1CCC2(CC(N3CCC(C4c5ccccc5CN4C(=O)NC)CC3)C2)C1 (single isomer, unassigned) [2-76 Isomer 2] : 12.6
CCOC(=O)N1CCC2(CC(N3CCC([C@@H]4CCCN4CCOC)CC3)C2)C1 (single isomer, unassigned) [2-71 Isomer 2] : 126
CCOC(=O)N1CCC2(CC(N3CCC(C4CCCN4C(=O)CNC)CC3)C2)C1 (single isomer, unassigned) [2-23 Isomer 2] : 50.1
CCOC(=O)N1CCC2(CC(N3CCC(c4cnc(OC)cc4C)CC3)C2)C1 (single isomer, unassigned) [3-6 Isomer 2] : 39.8

I: CCOC(=O)N1CCC2(CC(N3CCC([C@@H]4CCCN4C(=O)NCc4ccccn4)CC3)C2)C1 (single isomer, unassigned) [2-54 Isomer 2]
II: CCOC(=O)N1CCC2(CC(N3CCC([C@@H]4CCCN4C(=O)N4CCC4)CC3)C2)C1 (single isomer, unassigned) [2-27 Isomer 2]
III: COC(=O)N1CCC2(CC(N3CCC(c4nccs4)CC3)C2)C1 (single isomer, unassigned) [1-24 Isomer 2]
IV: CCOC(=O)N1CCC2(CC(N3CCC(N4CCC[C@@H]4c4cccs4)CC3)C2)C1 (single isomer, unassigned) [2-131 Isomer 2]
V: CCOC(=O)N1CCC2(CC(N3CCC(N4C(=O)CC[C@@H]4CC)CC3)C2)C1 (single isomer, unassigned) [2-116 Isomer 2]
Query block: // smallest EC50 at index 0, largest at the end Write out the labels following the order that was asked for.
Result block: I, V, II, III, IV
